- system.name: human enzyme NAMPT (full length) (Homo sapiens, UniProt P43490)
- Construct: human enzyme NAMPT (full length)
- Sequence (P43490 whole entry): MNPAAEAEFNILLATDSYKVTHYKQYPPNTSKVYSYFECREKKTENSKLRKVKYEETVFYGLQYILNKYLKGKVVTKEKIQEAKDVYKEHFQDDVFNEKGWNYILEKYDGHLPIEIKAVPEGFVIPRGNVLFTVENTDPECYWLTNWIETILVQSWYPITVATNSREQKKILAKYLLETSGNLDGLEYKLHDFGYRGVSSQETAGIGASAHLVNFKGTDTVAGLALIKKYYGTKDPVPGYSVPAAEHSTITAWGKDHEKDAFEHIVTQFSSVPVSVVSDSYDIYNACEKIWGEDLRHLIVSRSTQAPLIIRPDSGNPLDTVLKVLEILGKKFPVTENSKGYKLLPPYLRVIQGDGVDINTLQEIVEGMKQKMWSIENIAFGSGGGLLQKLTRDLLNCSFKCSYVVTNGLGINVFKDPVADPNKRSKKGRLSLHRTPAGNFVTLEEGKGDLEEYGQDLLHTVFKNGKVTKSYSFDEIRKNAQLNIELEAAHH
- assay.remarks: NMN fluorescence biochemical assay (stimulation of NMN synthesis by NAMPT)
- measurement.parameters: fold change of maximal activation compared to DMSO
test.readout: Enzymatic Emax

compound	system.name	Enzymatic Emax
Cc1nn(C)c(CC2c3ccccc3C(=O)N2CC2CC3(CNC(=O)O3)C2)c1Cl (stereo not drawn)	human enzyme NAMPT (full length) (Homo sapiens, UniProt P43490)	B (3≥B>2)
O=C1c2ccc(N3CCCC3)cc2CN1Cc1ccc(O)cc1	human enzyme NAMPT (full length) (Homo sapiens, UniProt P43490)	C (2≥C)
Cc1nn(C)c(C#N)c1CC1c2ccccc2C(=O)N1CC1CC2(CNC(=O)O2)C1 (stereo not drawn)	human enzyme NAMPT (full length) (Homo sapiens, UniProt P43490)	B (3≥B>2)
Cn1ncc(Cl)c1CC1c2c(F)cccc2C(=O)N1CC1CC2(CNC(=O)O2)C1 (stereo not drawn)	human enzyme NAMPT (full length) (Homo sapiens, UniProt P43490)	A (A>3)
NC(=O)c1cccc(CC2c3ccccc3C(=O)N2Cc2ccc3[nH]c(=O)oc3c2)c1 (stereo not drawn)	human enzyme NAMPT (full length) (Homo sapiens, UniProt P43490)	B (3≥B>2)
Cn1ncc(Cl)c1CC1c2ccccc2C(=O)N1CC1CC2(C1)OC(=O)NC2=O (stereo not drawn)	human enzyme NAMPT (full length) (Homo sapiens, UniProt P43490)	C (2≥C)

Query block: So what Enzymatic Emax did Cn1ncc(Cl)c1CC1c2ccccc2C(=O)N1CC#Cc1c[nH]cn1 (stereo not drawn) get with human enzyme NAMPT (full length) (Homo sapiens, UniProt P43490)?
Result block: C (2≥C)

Query block: Give human enzyme NAMPT (full length) (Homo sapiens, UniProt P43490) Enzymatic Emax for `CCc1ccc2c(c1)C(=O)N(Cc1ccc(O)cc1)C2=O`
Result block: A (A>3)

Query block: Form field: Enzymatic Emax recorded for Cc1ccn(C)c(=O)c1CC1c2ccccc2C(=O)N1CC1CC2(CNC(=O)O2)C1 (stereo not drawn) with human enzyme NAMPT (full length) (Homo sapiens, UniProt P43490) (enter value)
Result block: B (3≥B>2)

====

EC50 values, listed per item
- Tested on: endogenous NAMPT in U2OS cells
- assay.remarks: Cellular NAD+ modulation assay (NAD/NADH-Glo, U2OS cells)
- Type: cell-based
- measurement.parameters: Homo sapiens, 24 hours incubation, cellular NAD+

Previously resolved entries follow.
compound	EC50
Cn1ncc(Cl)c1CC1c2ccccc2C(=O)N1Cc1ccc2c(c1)ncn2C (centres unmarked)	500 to 5000 nM
Cn1nc(CN2CCOCC2)c(Cl)c1CC1c2ccccc2C(=O)N1CC1CC2(CNC(=O)O2)C1 (centres unmarked)	500 to 5000 nM
CN1CCn2c(cc(Cl)c2CC2c3ccccc3C(=O)N2CC2CC3(CNC(=O)O3)C2)C1 (centres unmarked)	< 500 nM
N#Cc1ccnc(C#N)c1CC1c2ccccc2C(=O)N1CC1CC2(CNC(=O)O2)C1 (centres unmarked)	< 500 nM
C/C(=C\c1c[nH]nn1)CN1C(=O)c2ccccc2C1Cc1ncccc1Br (centres unmarked)	< 500 nM
Cn1ncc(Cl)c1CC1c2ccccc2C(=S)N1CC1CC2(CNC(=O)O2)C1 (centres unmarked)	< 500 nM
NC(=O)C1CC(CN2C(=O)c3ccccc3C2Cc2ncccc2Br)C1 (centres unmarked)	< 500 nM
Cn1ncc(Cl)c1CC1c2ccccc2C(=O)N1CC1CC(C(N)=O)C1 (centres unmarked)	< 500 nM
O=C1c2ccccc2C(Cc2ncsc2Cl)N1Cc1ccc2[nH]nnc2c1 (centres unmarked)	< 500 nM
Cn1nc(C#N)c(CC2c3ccccc3C(=O)N2Cc2ccc3[nH]nnc3c2)c1Cl (centres unmarked)	< 500 nM

Query compound follows.
Query block: // EC50 lookup, key: COc1ccc(CN2C(=O)c3ccccc3C2Cc2ncccc2Br)cn1 (centres unmarked)
Result block: 500 to 5000 nM

====

- system.name: human enzyme NAMPT (full length) (Homo sapiens, UniProt P43490)
- Construct: human enzyme NAMPT (full length)
- assay.remarks: NMN fluorescence biochemical assay (stimulation of NMN synthesis by NAMPT)
- measurement.parameters: NMN synthesis by purified human NAMPT (100 nM); concentration giving half-maximal activation; read-out: Enzymatic EC50
pEC50: −log10 of the molar value.
test.readout: pEC50

Sample answers from the record:
compound	pEC50
Cn1c2ccccc2c(=O)n1Cc1ccc2[nH]nnc2c1	≤ 5.30
N#Cc1cncc(C#N)c1CC1c2ccccc2C(=O)N1Cc1ccc2[nH]c(=O)oc2c1 (stereo not drawn)	> 6.30

Here's the next entry for you.
Query block: Given Cc1cccc(CC2c3ccccc3C(=O)N2Cc2ccc3[nH]c(=O)oc3c2)n1 (stereo not drawn) , state its recorded pEC50.
Result block: ≤ 5.30

====

- system.name: human enzyme NAMPT (full length) (Homo sapiens, UniProt P43490)
- Construct: human enzyme NAMPT (full length)
- assay.remarks: NMN fluorescence biochemical assay (stimulation of NMN synthesis by NAMPT)
- measurement.parameters: fold change of maximal activation compared to DMSO
test.readout: Enzymatic Emax

Some entries whose results are on file:
compound	test.readout	result
O=C1c2ccccc2C(CC2=CCOCC2)N1Cc1ccc2[nH]c(=O)oc2c1 (stereo not drawn) [Compound 225]	Enzymatic Emax	A (A>3)
COc1ccc2c(c1)C(=O)N(Cc1ccc(O)cc1)C2=O [Compound 30]	Enzymatic Emax	A (A>3)
Cn1ncc(Cl)c1CC1c2ccccc2C(=O)N1Cc1ccc(Cl)cc1 (stereo not drawn) [Compound 573]	Enzymatic Emax	C (2≥C)
Cn1nc(OC(F)F)c(Cl)c1CC1c2ccccc2C(=O)N1Cc1ccc2[nH]nnc2c1 (stereo not drawn) [Compound 397]	Enzymatic Emax	B (3≥B>2)
O=C1NCC2(CC(CN3C(=O)c4ccccc4C3Cc3nnn(C4CC4)c3Cl)C2)O1 (stereo not drawn) [Compound 471]	Enzymatic Emax	B (3≥B>2)
COC1CC2(CC(CN3C(=O)c4ccccc4C3Cc3c(Cl)cnn3C)C2)C1 (stereo not drawn) [Compound 599]	Enzymatic Emax	C (2≥C)

Now look at this entry.
Query block: Would you mind telling me what Enzymatic Emax value was observed for Cc1cccc2c1C(C)N(Cc1ccc3[nH]c(=O)oc3c1)C2=O (stereo not drawn) [Compound 246] ?
Result block: B (3≥B>2)

====

Measured pEC50 of individual entries
- system.name: human enzyme NAMPT (full length) (Homo sapiens)
- Construct: human enzyme NAMPT (full length)
- assay.remarks: NMN fluorescence biochemical assay (stimulation of NMN synthesis by NAMPT)
- measurement.parameters: NMN synthesis by purified human NAMPT (100 nM); concentration giving half-maximal activation; read-out: Enzymatic EC50
pEC50: −log10 of the molar value.

Here is how some compounds turned out for pEC50.
compound	pEC50
Cc1ccnc(C#N)c1CC1c2ccccc2C(=O)N1CC1CC2(CNC(=O)O2)C1 (stereo not drawn) [Compound 308]	> 6.30
Cc1scnc1CC1c2ccccc2C(=O)N1Cc1ccc2[nH]c(=O)oc2c1 (stereo not drawn) [Compound 217]	5.30 to 6.30
O=C1c2ccccc2CN1Cc1ccc2[nH]nnc2c1 [Compound 289]	≤ 5.30
O=C1c2ccccc2C(Cc2ncccc2Br)N1Cc1ccn2cnnc2c1 (stereo not drawn) [Compound 239]	≤ 5.30
CC1c2cc(-c3cnco3)ccc2C(=O)N1Cc1ccc2[nH]c(=O)oc2c1 (single isomer, unassigned) [Compound 162]	5.30 to 6.30

Query block: Lab request: please report pEC50 under test system human enzyme NAMPT (full length) (Homo sapiens) for CCOc1ccccc1CC1c2ccccc2C(=O)N1Cc1ccc2[nH]c(=O)oc2c1 (stereo not drawn) [Compound 166]
Result block: 5.30 to 6.30

Query block: Short answer please: pEC50, human enzyme NAMPT (full length) (Homo sapiens), entry O=C1c2ccccc2C(Cc2ncccc2Br)N1Cc1ccc2[nH]c(=S)oc2c1 (stereo not drawn) [Compound 287]
Result block: 5.30 to 6.30

Query block: // lookup pEC50 | system=human enzyme NAMPT (full length) (Homo sapiens) | key= CC1c2c(cccc2C2CC2)C(=O)N1Cc1ccc2[nH]c(=O)oc2c1 (stereo not drawn) [Compound 245]
Result block: ≤ 5.30

Query block: What measured pEC50 is associated with C[C@H]1c2ccccc2C(=O)N1Cc1ccc2[nH]c(=O)oc2c1 [Compound 56] on human enzyme NAMPT (full length) (Homo sapiens)?
Result block: ≤ 5.30

Query block: Item N#Cc1cccc(F)c1CC1c2ccccc2C(=O)N1Cc1ccc2[nH]c(=O)oc2c1 (stereo not drawn) [Compound 170] with human enzyme NAMPT (full length) (Homo sapiens) - pEC50?
Result block: > 6.30

Query block: Enter reported pEC50 observed with human enzyme NAMPT (full length) (Homo sapiens) for NC(=O)c1cnc(CN2C(=O)c3ccccc3C2Cc2ncccc2Br)s1 (stereo not drawn) [Compound 280]
Result block: ≤ 5.30

Query block: Lab note: need pEC50 for NC(=O)c1cccc(CC2c3ccccc3C(=O)N2Cc2ccc3[nH]c(=O)oc3c2)c1 (stereo not drawn) [Compound 264] on human enzyme NAMPT (full length) (Homo sapiens), anyone have it?
Result block: 5.30 to 6.30
